Origin of values: patent US20250282794A1

Listing of entries alongside the reported pIC50.
Biological target: recombinant full length HPK-1 enzyme (Homo sapiens (Human))
Sequence (Q92918 whole entry, species assumed): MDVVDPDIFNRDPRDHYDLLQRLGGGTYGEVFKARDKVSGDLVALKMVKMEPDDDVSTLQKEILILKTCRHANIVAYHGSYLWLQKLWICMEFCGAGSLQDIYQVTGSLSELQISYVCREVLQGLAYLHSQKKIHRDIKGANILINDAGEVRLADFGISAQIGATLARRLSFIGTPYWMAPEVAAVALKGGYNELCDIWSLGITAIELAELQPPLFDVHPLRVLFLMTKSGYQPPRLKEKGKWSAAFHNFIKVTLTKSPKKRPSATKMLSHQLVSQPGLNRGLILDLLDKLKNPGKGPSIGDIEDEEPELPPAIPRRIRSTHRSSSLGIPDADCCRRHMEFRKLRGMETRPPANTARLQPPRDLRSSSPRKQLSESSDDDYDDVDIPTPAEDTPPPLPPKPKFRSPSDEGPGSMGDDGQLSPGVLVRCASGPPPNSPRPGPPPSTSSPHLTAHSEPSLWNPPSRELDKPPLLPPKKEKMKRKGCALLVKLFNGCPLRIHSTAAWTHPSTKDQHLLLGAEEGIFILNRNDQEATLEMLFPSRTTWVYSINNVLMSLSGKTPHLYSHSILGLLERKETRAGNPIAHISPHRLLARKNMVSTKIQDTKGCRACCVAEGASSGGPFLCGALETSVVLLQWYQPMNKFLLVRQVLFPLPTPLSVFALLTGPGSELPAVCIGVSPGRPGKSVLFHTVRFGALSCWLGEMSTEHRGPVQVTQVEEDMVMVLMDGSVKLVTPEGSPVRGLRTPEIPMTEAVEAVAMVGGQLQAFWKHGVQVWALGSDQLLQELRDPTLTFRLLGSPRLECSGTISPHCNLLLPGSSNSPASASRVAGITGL
Assay: HPK-1 biochemical enzyme assay (ADP-Glo kinase inhibition)
Details: recombinant full length HPK-1 6.8 nM, 10 μM ATP, 12.5 μM MBP, 30 mins at 25° C.
pIC50: −log10 of the molar value.

CO[C@H](C)C(=O)N1CCN(c2ccc(NC(=O)c3c(Nc4cnc5c(c4C)NCCO5)cc[nH]c3=O)cc2)CC1 ... 7.00 to 8.00

Req: Which value of pIC50 has been reported for Cc1c(Nc2cc[nH]c(=O)c2C(=O)Nc2ccc(N3CCN(CCO)CC3)c(F)c2)cnc2c1NCC(C)O2 (stereo not shown) in the records?
Resp: ≥ 8.00

Req: Next compound up: Cc1c(Nc2cc[nH]c(=O)c2C(=O)Nc2ccc(N3CCN(C)CC3)cc2)cnc2c1NC(=O)CO2
Resp: 7.00 to 8.00

Req: Next compound up: Cc1c(Nc2cc[nH]c(=O)c2C(=O)Nc2ccc(N3CC4CCC(C3)N4C)cc2)cnc2c1NCC(C)O2 (stereo not shown)
Resp: 7.00 to 8.00

Req: Next compound up: COCCN1CCN(c2ccc(NC(=O)c3c(Nc4cnc5c(c4C)NCC(C)O5)cc[nH]c3=O)cc2)CC1 (stereo not shown)
Resp: ≥ 8.00

Req: Next compound up: COCCCN1CCN(c2ccc(NC(=O)c3c(Nc4cnc5c(c4C)NCC(C)O5)cc[nH]c3=O)cc2)CC1 (stereo not shown)
Resp: 7.00 to 8.00

Req: Next compound up: Cc1c(Nc2cc[nH]c(=O)c2C(=O)Nc2ccc(N3CCN(C(=O)N4CCCC4)CC3)cc2)cnc2c1NCCO2
Resp: ≥ 8.00
